Where do the numbers come from? From ChEMBL document CHEMBL3808326.

Target entity: Tyrosinase (Agaricus bisporus)
Protocol description: Inhibition of monophenolase activity of mushroom tyrosinase using L-tyrosine as substrate incubated for 10 mins by UV-Visible spectrophotometric analysis
pIC50: −log10 of the molar value.
Measured parameter: pIC50

Prompt: Fill blank: measured pIC50 of the compound CC(C)[C@H](NC(=O)[C@@H](N)Cc1ccccc1)C(=O)NCc1cc(=O)c(O)c[nH]1 is ____.
Completion: 4.85

Prompt: Which measured pIC50 value corresponds to O=C(N[C@@H](Cc1ccccc1)C(=O)OCc1cc(=O)c(O)c[nH]1)OCc1ccccc1 ?
Completion: 5.71

Prompt: Need pIC50, item CC[C@H](C)[C@H](NC(=O)OCc1ccccc1)C(=O)OCc1cc(=O)c(O)c[nH]1
Completion: 4.81

Prompt: Suppose we examine the compound CC(C)C[C@H](NC(=O)[C@@H](N)Cc1ccccc1)C(=O)NCc1cc(=O)c(O)c[nH]1 ; what pIC50 value has been reported?
Completion: 5.16

Prompt: Please report the recorded pIC50 for C[C@H](NC(=O)OCc1ccccc1)C(=O)OCc1cc(=O)c(O)c[nH]1 .
Completion: 4.93

Prompt: I would be grateful if you could share the reported pIC50 for CC(C)C[C@H](NC(=O)OCc1ccccc1)C(=O)OCc1cc(=O)c(O)c[nH]1 .
Completion: 4.54

a = N[C@@H](Cc1ccccc1)C(=O)N[C@@H](Cc1ccccc1)C(=O)NCc1cc(=O)c(O)c[nH]1
b = CC(C)[C@H](NC(=O)OCc1ccccc1)C(=O)OCc1cc(=O)c(O)c[nH]1
Prompt: Hey, between a and b which has a smaller measured pIC50? In your reply, give the label of the chosen option.
Completion: b

---

Target entity: Tyrosinase (Agaricus bisporus, UniProt O42713)
Sequence (O42713 whole entry): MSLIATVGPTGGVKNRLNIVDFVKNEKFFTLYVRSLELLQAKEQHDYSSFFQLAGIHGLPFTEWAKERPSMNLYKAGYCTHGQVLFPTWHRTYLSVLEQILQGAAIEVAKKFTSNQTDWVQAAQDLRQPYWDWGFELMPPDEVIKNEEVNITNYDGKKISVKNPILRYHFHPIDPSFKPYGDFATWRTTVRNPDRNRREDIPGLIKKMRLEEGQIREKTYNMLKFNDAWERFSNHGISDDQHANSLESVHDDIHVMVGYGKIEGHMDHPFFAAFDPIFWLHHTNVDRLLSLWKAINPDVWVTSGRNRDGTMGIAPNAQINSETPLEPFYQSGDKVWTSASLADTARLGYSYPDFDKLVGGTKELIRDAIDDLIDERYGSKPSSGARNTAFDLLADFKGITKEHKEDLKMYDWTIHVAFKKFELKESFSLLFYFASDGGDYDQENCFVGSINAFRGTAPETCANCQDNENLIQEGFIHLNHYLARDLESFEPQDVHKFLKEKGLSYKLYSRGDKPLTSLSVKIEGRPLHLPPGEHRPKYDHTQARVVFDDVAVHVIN
Protocol description: Inhibition of diphenolase activity of mushroom tyrosinase using L-DOPA as substrate incubated for 10 mins by UV-Visible spectrophotometric analysis
pIC50: −log10 of the molar value.
Measured parameter: pIC50

I = O=C(N[C@@H](Cc1ccccc1)C(=O)OCc1cc(=O)c(O)c[nH]1)OCc1ccccc1
II = N[C@@H](Cc1ccccc1)C(=O)N[C@@H](Cc1ccccc1)C(=O)NCc1cc(=O)c(O)c[nH]1
Prompt: Pick one: I or II . Which has the bigger pIC50 number? Returns: label corresponding to the selected item.
Completion: I
(I: 5.05, II: 4.58)
